Sourced from ChEMBL document CHEMBL3817731

assay: Cytotoxicity against human BEAS2B cells assessed as reduction in cell survival after 24 hrs by resazurin assay; type: cell-based; conditions: BEAS-2B
Item-by-item account of IC50
Reply numerically in µg/mL, unit not repeated.

CCOc1ccc(-c2nc3cc(-c4nc5cc(N6CCN(C)CC6)ccc5[nH]4)ccc3[nH]2)cc1: 1.95
C#CCOc1ccc(-c2nc3ccc(-c4nc5ccc(N6CCN(C)CC6)cc5[nH]4)cc3[nH]2)cc1: 0.98

# evaluate next
Look up IC50 for this molecule: "COc1ccc(-c2nc3cc(-c4nc5cc(N6CCN(C)CC6)ccc5[nH]4)ccc3[nH]2)cc1"
1.95

====

Item-by-item account of MIC
test system: Candida albicans; assay: Antifungal activity against Candida albicans ATCC MYA-1237 after 48 hrs by CLSI M27-A3 method; format: functional; details: ATCC MYA-1237, 48 h

Check out these entries, answers already filled in.
C[C@@H](c1ncncc1F)[C@](O)(Cn1cncn1)c1ccc(F)cc1F [VORICONAZOLE]: 7.8 µg/mL
CN1CCN(c2ccc3[nH]c(-c4ccc5[nH]c(-c6ccc(O)cc6)nc5c4)nc3c2)CC1 [HOECHST 33258]: 3.9 µg/mL
CCCCCN1CCN(c2ccc3nc(-c4ccc5nc(-c6ccc(OCC)cc6)[nH]c5c4)[nH]c3c2)CC1: > 31.2 µg/mL

# evaluate next
Look up MIC for this compound: "CN1CCN(c2ccc3nc(-c4ccc5nc(-c6ccc(OCCOCCO)cc6)[nH]c5c4)[nH]c3c2)CC1"
> 31.2 µg/mL
